Please provide measured pIC50 for the entries that follow.
molecular target: KDM5A (Homo sapiens, UniProt P29375); construct: Full length recombinant Flag tagged KDM5A protein was purified from Sf9 insect cells; Flag; made in house; host or cells: Sf9 insect cells; assay: KDM5A Demethylase Assay (TR-FRET Assay-B); assay type: biochemical; details: full length recombinant Flag tagged KDM5A, 2 nM, TrisCl pH 7.4, 3.0 μM α-ketoglutarate, read-out: B KDM5A HTRF (IC50)
Sequence (P29375 whole entry): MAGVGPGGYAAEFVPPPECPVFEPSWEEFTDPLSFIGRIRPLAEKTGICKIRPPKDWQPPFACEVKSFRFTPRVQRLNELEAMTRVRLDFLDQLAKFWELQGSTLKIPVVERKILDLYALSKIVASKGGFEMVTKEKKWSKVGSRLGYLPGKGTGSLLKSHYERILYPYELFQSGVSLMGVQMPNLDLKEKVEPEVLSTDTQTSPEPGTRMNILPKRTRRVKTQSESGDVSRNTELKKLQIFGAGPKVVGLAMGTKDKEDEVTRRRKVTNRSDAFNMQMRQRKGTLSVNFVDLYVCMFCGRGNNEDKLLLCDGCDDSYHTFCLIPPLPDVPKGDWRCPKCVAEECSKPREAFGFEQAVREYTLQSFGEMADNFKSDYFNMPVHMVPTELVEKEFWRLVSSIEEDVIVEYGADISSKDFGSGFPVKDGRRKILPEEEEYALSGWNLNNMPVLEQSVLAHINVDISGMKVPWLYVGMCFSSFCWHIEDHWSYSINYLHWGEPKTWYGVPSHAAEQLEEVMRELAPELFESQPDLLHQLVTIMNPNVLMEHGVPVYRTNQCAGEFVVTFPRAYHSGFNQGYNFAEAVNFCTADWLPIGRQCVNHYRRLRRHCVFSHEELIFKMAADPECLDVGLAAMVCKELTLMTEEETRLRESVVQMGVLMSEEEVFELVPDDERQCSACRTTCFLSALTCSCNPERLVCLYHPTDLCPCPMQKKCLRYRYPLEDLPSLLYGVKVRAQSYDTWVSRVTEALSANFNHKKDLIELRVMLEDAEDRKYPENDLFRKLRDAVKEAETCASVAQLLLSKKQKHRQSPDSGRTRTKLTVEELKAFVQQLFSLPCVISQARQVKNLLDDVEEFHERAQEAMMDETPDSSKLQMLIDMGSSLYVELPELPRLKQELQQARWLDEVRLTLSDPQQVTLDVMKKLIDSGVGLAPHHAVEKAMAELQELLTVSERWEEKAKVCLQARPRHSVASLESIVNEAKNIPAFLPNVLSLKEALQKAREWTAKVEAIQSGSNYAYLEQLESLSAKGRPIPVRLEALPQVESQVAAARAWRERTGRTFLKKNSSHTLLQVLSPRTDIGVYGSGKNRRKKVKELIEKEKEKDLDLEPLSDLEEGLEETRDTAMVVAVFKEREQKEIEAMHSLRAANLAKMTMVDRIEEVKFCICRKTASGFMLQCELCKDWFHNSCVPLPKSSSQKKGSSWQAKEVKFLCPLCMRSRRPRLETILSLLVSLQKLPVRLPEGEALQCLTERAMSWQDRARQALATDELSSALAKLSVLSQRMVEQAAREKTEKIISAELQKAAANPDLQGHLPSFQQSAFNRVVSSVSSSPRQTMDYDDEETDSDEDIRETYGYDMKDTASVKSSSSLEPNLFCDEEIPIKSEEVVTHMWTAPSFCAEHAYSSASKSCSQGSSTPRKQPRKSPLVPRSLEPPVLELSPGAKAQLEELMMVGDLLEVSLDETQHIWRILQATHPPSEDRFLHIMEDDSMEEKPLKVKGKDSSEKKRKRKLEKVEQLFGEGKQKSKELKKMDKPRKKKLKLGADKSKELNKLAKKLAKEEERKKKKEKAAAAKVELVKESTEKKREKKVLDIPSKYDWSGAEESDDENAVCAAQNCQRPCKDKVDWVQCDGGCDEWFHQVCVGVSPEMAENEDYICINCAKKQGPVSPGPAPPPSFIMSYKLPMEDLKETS
# pIC50 is unitless: minus log10 of the molar concentration; print number only

input: Given "Cc1ccc(-n2cc(-c3cnn4c(=O)c(C(C)C)c(C)[nH]c34)cn2)nc1" , state its recorded pIC50.
output: 8.04

input: Given "Cc1cnc(-n2cc(-c3cnn4c(=O)c(C(C)C)c(C)[nH]c34)cn2)nc1" , state its recorded pIC50.
output: 7.78

input: Given "Cc1ccnc(-n2cc(-c3cnn4c(=O)c(C(C)C)c(C)[nH]c34)cn2)c1" , state its recorded pIC50.
output: 7.63

input: Given "CCc1c(C)[nH]c2c(-c3cnn(-c4nccs4)c3)cnn2c1=O" , state its recorded pIC50.
output: 6.87

input: Given "CCc1c(C)[nH]c2c(-c3cnn(-c4cc(Cl)ccn4)c3)cnn2c1=O" , state its recorded pIC50.
output: 7.18

input: Given "CCc1c(C)[nH]c2c(-c3cnn(-c4cc(OCCO)ccn4)c3)cnn2c1=O" , state its recorded pIC50.
output: 7.85

input: Given "CCc1c(C)[nH]c2c(-c3cnn(-c4ncccn4)c3)cnn2c1=O" , state its recorded pIC50.
output: 7.78

###

Please provide measured IC50 for the entries that follow.
target: KDM5A (Homo sapiens, UniProt P29375); construct: Full length recombinant Flag tagged KDM5A protein was purified from Sf9 insect cells; Flag; made in house; host or cells: Sf9 insect cells; assay: KDM5A Demethylase Assay (MassSpec Assay-A); type: biochemical; settings: full length recombinant Flag tagged KDM5A, 20 nM; MassSpec readout; biotinylated H3K9me1 peptide 4.0 μM; read-out: A KDM5A MS (IC50)
Give the quantity in nM, number only.

input: Record CCc1c(C)[nH]c2c(-n3cnc(-c4ccccn4)c3)cnn2c1=O [Example 48] : what is its IC50 with KDM5A (Homo sapiens, UniProt P29375)?
output: 70.5

input: Record CCc1c(C)[nH]c2c(-c3cnn(-c4nccc5ccccc45)c3)cnn2c1=O [Example 66] : what is its IC50 with KDM5A (Homo sapiens, UniProt P29375)?
output: 861

input: Record CCc1c(C)[nH]c2c(-c3nnc(C(N)=O)o3)cnn2c1=O [Example 56] : what is its IC50 with KDM5A (Homo sapiens, UniProt P29375)?
output: 276
